- ASSAY SYSTEM: Cholinesterase (Homo sapiens)
- Sequence (P06276 whole entry): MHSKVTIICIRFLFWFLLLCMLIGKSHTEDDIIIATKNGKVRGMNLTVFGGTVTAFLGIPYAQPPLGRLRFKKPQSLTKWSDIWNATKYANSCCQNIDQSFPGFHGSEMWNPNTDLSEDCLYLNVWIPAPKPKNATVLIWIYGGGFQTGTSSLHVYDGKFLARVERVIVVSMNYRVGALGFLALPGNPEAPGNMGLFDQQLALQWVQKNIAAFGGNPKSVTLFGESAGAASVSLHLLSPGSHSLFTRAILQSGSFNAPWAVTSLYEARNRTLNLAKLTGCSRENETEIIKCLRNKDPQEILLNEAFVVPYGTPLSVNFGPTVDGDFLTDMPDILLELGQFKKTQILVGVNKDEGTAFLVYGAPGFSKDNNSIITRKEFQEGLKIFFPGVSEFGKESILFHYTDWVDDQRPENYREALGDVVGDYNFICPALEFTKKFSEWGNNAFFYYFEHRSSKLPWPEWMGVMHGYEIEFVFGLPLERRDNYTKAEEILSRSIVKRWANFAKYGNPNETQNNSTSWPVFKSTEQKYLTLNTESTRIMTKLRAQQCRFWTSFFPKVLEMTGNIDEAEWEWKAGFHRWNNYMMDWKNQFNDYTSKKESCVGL
- ASSAY METHOD TEXT: Inhibition of human recombinant BuChE at 25 uM using butyrylthiocholine iodide as substrate preincubated for 20 mins followed by substrate addition by Ellman's spectrophotometric method relative to control
inhibition for assorted compounds
Response body: numeric value in %, unit text excluded.

Please review the following examples before continuing.
*Q* What value of inhibition has been reported for the following compound? COc1ccc(-c2oc3ccccc3c2C(=O)c2ccc(N(Cc3ccc(F)cc3)Cc3ccc(F)cc3)cc2)cc1
*A* 75

*Q* Try COc1ccc(-c2oc3ccccc3c2C(=O)c2ccc(N(Cc3cc(F)cc(F)c3)Cc3cc(F)cc(F)c3)cc2)cc1 next.
*A* 67

*Q* Try COc1ccc(-c2oc3ccccc3c2C(=O)c2ccc(NCc3ccc(F)cc3)cc2)cc1 next.
*A* 60.8

Now for the compound whose inhibition we want.
*Q* What value of inhibition has been reported for the following compound? COc1ccc(-c2oc3ccccc3c2C(=O)c2ccc(OCCCN(C)Cc3ccccc3)cc2)cc1
*A* 35

====

Ki for assorted compounds
- ASSAY SYSTEM: Cannabinoid receptor 1 (Homo sapiens, UniProt P21554)
- Sequence (P21554 whole entry): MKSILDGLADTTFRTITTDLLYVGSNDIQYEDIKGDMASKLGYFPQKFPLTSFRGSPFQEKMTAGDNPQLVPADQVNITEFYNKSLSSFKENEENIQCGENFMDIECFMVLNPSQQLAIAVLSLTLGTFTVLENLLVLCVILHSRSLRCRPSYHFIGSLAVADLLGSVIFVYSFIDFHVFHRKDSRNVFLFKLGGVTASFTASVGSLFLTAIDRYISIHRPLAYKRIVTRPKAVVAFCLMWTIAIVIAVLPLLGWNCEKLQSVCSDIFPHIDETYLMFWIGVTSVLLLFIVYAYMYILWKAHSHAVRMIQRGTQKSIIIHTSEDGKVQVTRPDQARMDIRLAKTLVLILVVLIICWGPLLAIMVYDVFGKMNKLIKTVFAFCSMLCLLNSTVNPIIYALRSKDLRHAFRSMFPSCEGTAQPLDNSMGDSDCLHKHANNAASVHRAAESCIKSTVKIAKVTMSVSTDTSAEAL
- ASSAY METHOD TEXT: Displacement of 3[H]-CP55940 from human recombinant CB1 receptor expressed in HEK293 cell membranes measured after 90 mins by Cheng-Prusoff equation analysis
Response body: numeric value in nM, unit text excluded.

*Q* What value of Ki has been reported for the following compound? COc1ccc(-c2oc3ccccc3c2C(=O)c2ccc(OCCCN(C)Cc3ccccc3)cc2)cc1
*A* 500

*Q* Try COc1ccc(-c2oc3ccccc3c2C(=O)c2ccc(NCc3ccc(F)cc3)cc2)cc1 next.
*A* 780

*Q* Try COc1ccc(-c2oc3ccccc3c2C(=O)c2ccc(N(C)Cc3ccc(F)cc3)cc2)cc1 next.
*A* 20

*Q* Try COc1ccc(-c2oc3ccccc3c2C(=O)c2ccc(NCc3ccc(C#N)cc3)cc2)cc1 next.
*A* 2600

*Q* Try COc1ccc(-c2oc3ccccc3c2C(=O)c2ccc(OCCCCCN(C)Cc3ccccc3)cc2)cc1 next.
*A* 1760

Others:
*Q* What value of Ki has been reported for the following compound? COc1ccc(-c2oc3ccccc3c2C(=O)c2ccc(OCCN(C)Cc3ccccc3)cc2)cc1
*A* 430

*Q* Try CCCCCNc1ccc(C(=O)c2c(-c3ccc(OC)cc3)oc3ccccc23)cc1 next.
*A* 80

*Q* Try CCCCCCCNc1ccc(C(=O)c2c(-c3ccc(OC)cc3)oc3ccccc23)cc1 next.
*A* 1660

*Q* Try COc1ccc(-c2oc3ccccc3c2C(=O)c2ccc(OCCCCN(C)Cc3ccccc3)cc2)cc1 next.
*A* 860

*Q* Try COc1ccc(-c2oc3ccccc3c2C(=O)c2ccc(NCC3CC3)cc2)cc1 next.
*A* 470

====

- ASSAY SYSTEM: Cannabinoid receptor 1 (Homo sapiens)
- ASSAY METHOD TEXT: Displacement of 3[H]-CP55940 from human recombinant CB1 receptor expressed in HEK293 cell membranes measured after 90 mins
RESULT TYPE: IC50 (nM)
Response body: numeric value in nM, unit text excluded.

*Q* Can you look up IC50 on Cannabinoid receptor 1 (Homo sapiens) for COc1ccc(-c2oc3ccccc3c2C(=O)c2ccc(NCC3CC3)cc2)cc1 ?
*A* 1670

Others:
*Q* Can you look up IC50 on Cannabinoid receptor 1 (Homo sapiens) for COc1ccc(-c2oc3ccccc3c2C(=O)c2ccc(OCCCN(C)Cc3ccccc3)cc2)cc1 ?
*A* 2060

*Q* Try CCCCCNc1ccc(C(=O)c2c(-c3ccc(OC)cc3)oc3ccccc23)cc1 next.
*A* 300
